Biological target: human 5-HT6 receptor (Homo sapiens)
Construct: host or cells: CHO-K1 cells, stably transfected; membranes prepared in house
Sequence (P50406 whole entry): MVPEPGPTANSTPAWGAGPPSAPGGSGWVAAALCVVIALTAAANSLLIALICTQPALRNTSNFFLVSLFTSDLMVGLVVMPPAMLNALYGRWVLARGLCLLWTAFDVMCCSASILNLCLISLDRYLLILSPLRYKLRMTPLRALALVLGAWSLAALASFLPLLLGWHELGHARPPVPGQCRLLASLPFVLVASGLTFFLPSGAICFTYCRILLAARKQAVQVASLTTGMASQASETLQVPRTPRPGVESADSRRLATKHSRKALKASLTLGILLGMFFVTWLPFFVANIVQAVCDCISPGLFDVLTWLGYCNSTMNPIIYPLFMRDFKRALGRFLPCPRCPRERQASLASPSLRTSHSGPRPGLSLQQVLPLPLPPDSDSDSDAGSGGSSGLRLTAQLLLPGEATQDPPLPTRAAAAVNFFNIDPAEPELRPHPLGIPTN
Experiment: Human 5-HT6 Receptor Binding Assay ([3H]LSD displacement, scintillation beads)
Conditions: membranes of CHO-K1 cells with recombinant human 5-HT6, 4 nM [3H]LSD; Table 1, class symbols; read-out: h5-HT6 (Ki)
pKi: −log10 of the molar value.
property_name: pKi

compound	result
CCNC(=O)Oc1cccc(S(=O)(=O)c2ccc3c(c2)OC2CNCCC32)c1 (stereo not drawn) [Example 628]	> 6.30
O=S(=O)(c1ccccc1)c1ccc2c3c(oc2c1)C(C(F)F)NCC3 (stereo not drawn) [Example 523]	> 6.30
O=S(=O)(Oc1ccc2c(c1)C1CCNCC1O2)c1ccc2c(c1)OCCO2 (stereo not drawn) [Example 729]	> 6.30
O=S(=O)(Oc1ccc2c(c1)OC1CNCCC21)c1cccc2cnccc12 (stereo not drawn) [Example 684]	6.00 to 6.30
O=S(=O)(c1cccc(-n2cnnn2)c1)c1ccc2c(c1)OC1CNCCC21 (stereo not drawn) [Example 75]	< 6.00
O=S(=O)(c1ccc(OC(F)(F)F)cc1)c1ccc2oc3c(c2c1)CCNC3 [Example 275]	6.00 to 6.30
O=S(=O)(c1cccc(C(F)(F)F)c1)c1ccc2c3c(oc2c1)C1(CCOCC1)NCC3 [Example 298]	> 6.30
O=S(=O)(c1ccc2c(c1)OC1CNCCC21)c1cccc2cccnc12 (stereo not drawn) [Example 333]	> 6.30
O=S(=O)(c1cc(Cl)cc(Cl)c1)c1ccc2oc3c(c2c1)CCNC3 [Example 262]	> 6.30

----------
Target: human 5-HT6 receptor (Homo sapiens)
Construct: host or cells: CHO-K1 cells, stably transfected; membranes prepared in house
Experiment: Human 5-HT6 Receptor Binding Assay ([3H]LSD displacement, scintillation beads)
Conditions: membranes of CHO-K1 cells with recombinant human 5-HT6, 4 nM [3H]LSD; Table 1, class symbols; read-out: h5-HT6 (Ki)
property_name: Ki

compound	result
O=S(=O)(Nc1ccc2c(c1)C1CCNCC1O2)c1cccc(Cl)c1 (stereo not drawn) [Example 826]	< 500 nM
COc1cc(OCC2CC2)cc(S(=O)(=O)c2ccc3c(c2)OC2CNCCC32)c1 (stereo not drawn) [Example 585]	< 500 nM
COc1ccc(S(=O)(=O)c2ccc3c4c(oc3c2)C(C)NCC4)cc1F (stereo not drawn) [Example 236]	< 500 nM
CC12CCNCC1Oc1ccc(S(=O)(=O)c3ccccn3)cc12 (stereo not drawn) [Example 91]	> 1000 nM
COc1c(F)cc(F)cc1S(=O)(=O)c1ccc2c(c1)OC1CNCCC21 (stereo not drawn) [Example 463]	< 500 nM
O=S(=O)(c1cc[n+]([O-])cc1)c1ccc2c(c1)OC1CNCCC21 (stereo not drawn) [Example 329]	> 1000 nM
COc1cccc(S(=O)(=O)c2ccc3c4c(oc3c2)C(C)(C)NCC4)c1 [Example 16]	< 500 nM
COc1ccc(S(=O)(=O)Oc2ccc3c(c2)C2CCNCC2O3)cc1 (stereo not drawn) [Example 707]	500 to 1000 nM
C#CCOc1cccc(S(=O)(=O)c2ccc3c(c2)OC2CNCCC32)c1 (stereo not drawn) [Example 549]	< 500 nM
[O-][S+](c1ccc(Cl)c(C(F)(F)F)c1)c1ccc2c3c(oc2c1)CNCC3 (stereo not drawn) [Example 209]	< 500 nM
O=S(=O)(c1ccc(Cl)c(Cl)c1)c1ccc2c(c1)OC1CNCCC21 (stereo not drawn) [Example 120]	< 500 nM
O=S(=O)(c1ccc2c3c(oc2c1)CNCC3)c1cc(F)ccc1F [Example 223]	< 500 nM
CC(=O)N(C)CCC1NCCc2c1oc1cc(S(=O)(=O)c3cccc(F)c3)ccc21 (racemic) [Example 538]	< 500 nM
CCCCOc1cc(OC)cc(S(=O)(=O)c2ccc3c(c2)OC2CNCCC32)c1 (stereo not drawn) [Example 587]	< 500 nM
Cc1ccc(S(=O)(=O)Oc2ccc3c(c2)OC2CNCCC32)cc1C (stereo not drawn) [Example 649]	< 500 nM
O=S(=O)(Oc1ccc2c(c1)OC1CNCCC21)c1cc2ccccc2s1 (stereo not drawn) [Example 664]	< 500 nM
COc1ccc(S(=O)(=O)c2ccc3c4c(oc3c2)CNCC4)cc1 [Example 198]	< 500 nM
O=S(=O)(c1ccc(F)c(F)c1)c1ccc2c(c1)OC1CNCCC21 (stereo not drawn) [Example 128]	< 500 nM

Just for reference, patent US8765779B2 is where these values come from.
